The measured values listed here are drawn from patent US10626112B2.

# targetOrTestSystem: human TRPA1 (Homo sapiens (Human), UniProt O75762)
# Sequence (O75762 whole entry): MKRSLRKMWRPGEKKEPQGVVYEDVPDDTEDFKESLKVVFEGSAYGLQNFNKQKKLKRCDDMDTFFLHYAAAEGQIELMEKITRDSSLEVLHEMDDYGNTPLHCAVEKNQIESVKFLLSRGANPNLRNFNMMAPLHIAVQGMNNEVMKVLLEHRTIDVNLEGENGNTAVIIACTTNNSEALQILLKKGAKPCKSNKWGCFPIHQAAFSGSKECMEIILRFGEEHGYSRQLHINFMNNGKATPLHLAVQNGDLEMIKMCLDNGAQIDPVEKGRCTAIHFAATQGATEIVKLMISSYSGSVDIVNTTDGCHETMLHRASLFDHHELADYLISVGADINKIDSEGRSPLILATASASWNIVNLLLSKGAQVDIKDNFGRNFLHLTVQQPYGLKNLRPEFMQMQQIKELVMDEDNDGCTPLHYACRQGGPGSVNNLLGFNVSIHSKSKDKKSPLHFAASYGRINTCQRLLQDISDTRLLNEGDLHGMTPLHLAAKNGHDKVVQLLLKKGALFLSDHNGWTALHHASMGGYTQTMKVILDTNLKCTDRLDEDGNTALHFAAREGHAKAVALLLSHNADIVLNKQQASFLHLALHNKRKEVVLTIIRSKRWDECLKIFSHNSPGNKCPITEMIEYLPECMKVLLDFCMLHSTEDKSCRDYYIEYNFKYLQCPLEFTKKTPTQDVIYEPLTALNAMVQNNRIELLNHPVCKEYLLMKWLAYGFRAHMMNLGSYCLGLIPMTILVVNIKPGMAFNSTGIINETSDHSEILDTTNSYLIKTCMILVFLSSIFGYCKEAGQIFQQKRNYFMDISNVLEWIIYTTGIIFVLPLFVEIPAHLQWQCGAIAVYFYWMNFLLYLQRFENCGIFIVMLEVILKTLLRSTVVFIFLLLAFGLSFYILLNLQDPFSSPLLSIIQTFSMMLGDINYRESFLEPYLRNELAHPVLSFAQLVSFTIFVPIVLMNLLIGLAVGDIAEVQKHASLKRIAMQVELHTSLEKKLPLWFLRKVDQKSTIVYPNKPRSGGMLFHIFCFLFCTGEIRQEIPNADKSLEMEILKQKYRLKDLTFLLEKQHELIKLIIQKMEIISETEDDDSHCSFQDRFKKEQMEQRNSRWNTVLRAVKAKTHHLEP
# assayInfo: Measurement of TRPA1 antagonist activity (1): intracellular calcium increase
# Type: cell-based
# assayContext: 293T cells transfected with human TRPA1 expression plasmid; allylisothiocyanate 20 μM stimulation; intracellular calcium fluorescence; read-out: hTRPA1 IC50
Listed next: entries and their corresponding IC50.

# example entries with known answers
O=C(NCc1cccc(C(F)(F)F)c1)[C@@H]1CCCN1S(=O)(=O)c1cc2ccccc2o1: 55 nM
O=C(NCc1ccnc(-c2ccccc2O)c1)[C@@H]1CCCN1S(=O)(=O)c1cc2ccccc2o1: 180 nM
C[C@H](NS(=O)(=O)c1cc2ccccc2o1)C(=O)NCc1ccnc(-c2ccc(C(F)(F)F)cc2)c1: 56 nM

Attention now turns to another entry.
Determine its reported IC50: "O=C(NCc1cccc(SCc2ccc(C(F)(F)F)cc2)c1)[C@@H]1CCCN1S(=O)(=O)c1cc2ccccc2o1"
22 nM

----------
# targetOrTestSystem: human TRPA1 (Homo sapiens (Human), UniProt O75762)
# assayInfo: Measurement of TRPA1 antagonist activity (1): intracellular calcium increase
# Assay type: cell-based
# assayContext: 293T cells transfected with human TRPA1 expression plasmid; allylisothiocyanate 20 μM stimulation; intracellular calcium fluorescence; read-out: hTRPA1 IC50
propertyName: pIC50
Quick note: pIC50 means taking -log10 of the concentration in moles per liter.

O=C(NCc1cc(-c2ccc(OC(F)(F)F)cc2)ccn1)[C@@H]1CCCN1S(=O)(=O)c1cc2ccccc2o1 [Example 153]: 8.25

Tell me measured pIC50 for CC(C)(C)OC[C@H](NS(=O)(=O)c1cc2cc(F)ccc2o1)C(=O)NCc1cccc(-c2ccc(C(F)(F)F)nc2)c1 [Example 189] please.
6.08

Fill in pIC50 for record O=C(NCc1cc(-c2ccc(C(F)(F)F)nc2)cnn1)[C@@H]1CCCN1S(=O)(=O)c1cc2ccccc2o1 [Example 211]
7.14

Supply measured pIC50 of CN(C)c1ccc(-c2cc(CNC(=O)[C@@H]3CCCN3S(=O)(=O)c3cc4ccccc4o3)ccn2)cn1 [Example 125] in your reply.
6.62

----------
# targetOrTestSystem: human TRPA1 (Homo sapiens (Human), UniProt O75762)
# assayInfo: Measurement of TRPA1 antagonist activity (2): as (1), different lot of human TRPA1 expression plasmid
# Assay type: cell-based
# assayContext: 293T cells transfected with human TRPA1, allylisothiocyanate 20 μM stimulation, calcium fluorescence, read-out: hTRPA1 IC50
pIC50: −log10 of the molar value.
Categorize each record by its pIC50 using lower range = under 7, middle range = from 7 up to 8, upper range = 8 and over

Observe how each entry below is paired with its result.
O=C(CNS(=O)(=O)c1cc2cc(F)ccc2o1)NCc1cc(-c2ccc(C(F)(F)F)cc2)ncn1: lower range
C[C@H](C(=O)NCc1cc(-c2ccc(C(F)(F)F)cn2)ccn1)N(C)S(=O)(=O)c1cc2cc(F)ccc2o1: lower range
O=C(NCc1ccnc(-c2ccc(C(F)(F)F)cc2O)c1)[C@@H]1CCN1S(=O)(=O)c1cc2ccccc2o1: middle range
O=C(CN(CC1CC1)S(=O)(=O)c1cc2cc(F)ccc2o1)NCc1cc(-c2ccc(C(F)(F)F)cn2)ccn1: middle range
CN(CC(=O)NCc1cc(-c2ccc(C(F)(F)F)cc2)ncn1)S(=O)(=O)c1cc2cc(F)ccc2o1: upper range
O=C(NCc1cc(-c2ncc(C(F)(F)F)cn2)ccn1)[C@@H]1CCCN1S(=O)(=O)c1cc2cnccc2o1: lower range

Which bin, given its pIC50, does "O=C(NCc1cccc(-c2cnc(C(F)(F)F)cn2)c1)[C@@H]1CCCN1S(=O)(=O)c1cc2cc(F)ccc2o1" occupy?
upper range

Using the reported pIC50, which band applies to "O=C(NCc1cc(-c2ccc(C(F)(F)F)cn2)ccn1)[C@@H]1CCCN1S(=O)(=O)c1cc2ccccc2o1" ?
upper range

Band assignment needed for "CN(C)c1nc(CNC(=O)[C@@H]2CCCN2S(=O)(=O)c2cc3cc(F)ccc3o2)cc(-c2ccc(C(F)(F)F)cc2)n1" please.
upper range
